- Measured Target: Retinoic acid receptor gamma (Homo sapiens) (UniProt P13631)
- Sequence (whole entry): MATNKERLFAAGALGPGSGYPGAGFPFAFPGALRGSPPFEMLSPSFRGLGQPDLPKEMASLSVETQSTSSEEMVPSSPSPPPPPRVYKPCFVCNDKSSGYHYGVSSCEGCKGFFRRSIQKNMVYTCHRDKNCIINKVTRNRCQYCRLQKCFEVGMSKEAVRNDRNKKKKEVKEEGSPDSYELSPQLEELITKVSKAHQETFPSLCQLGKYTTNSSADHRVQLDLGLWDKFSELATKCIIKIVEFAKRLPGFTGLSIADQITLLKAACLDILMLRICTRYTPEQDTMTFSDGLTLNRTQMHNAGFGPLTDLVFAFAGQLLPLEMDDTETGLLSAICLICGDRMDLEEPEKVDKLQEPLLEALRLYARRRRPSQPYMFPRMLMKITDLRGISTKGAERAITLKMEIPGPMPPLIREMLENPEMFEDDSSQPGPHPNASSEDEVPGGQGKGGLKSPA
- Measurement Description: Inhibition of transactivation activity of Gal4-LBD fused human RARgamma (178 to 454) transfected in atRA-stimulated african green monkey CV1 cells at 4 uM after 20 hrs by Dual-light chemiluminescent assay
- Condition Description: CV-1
The source made the active and inactive calls. The calls are words filed in the database; no cut-off is given here.
Reply using exactly one outcome from active, inactive

Known results for compounds:
# Structure Smiles, Label Value
rows = [
    ("COCCOCOc1cc(C)c(-c2ccc(CC(=O)O)cc2Cl)cc1C12CC3CC(CC(C3)C1)C2", "inactive"),
    ("COCCOCOc1cc(C)c(-c2ccc(/C=C/C(=O)O)cc2Cl)cc1C12CC3CC(CC(C3)C1)C2", "inactive"),
    ("Cc1cc(O)c(C23CC4CC(CC(C4)C2)C3)cc1-c1ccc2cc(C(=O)O)ccc2c1Cl", "inactive"),
    ("COCCOCOc1cc(C)c(-c2ccc3cc(C(=O)O)ccc3c2Cl)cc1C12CC3CC(CC(C3)C1)C2", "inactive"),
    ("Cc1cc(O)c(C23CC4CC(CC(C4)C2)C3)cc1-c1ccc(/C=C/C(=O)O)cc1Cl", "inactive"),
    ("COCCOCOc1ccc(C(=O)/C=C/c2ccc(C(=O)O)cc2)cc1C12CC3CC(CC(C3)C1)C2", "active"),
]

Now examine the next entry.
What is the recorded call for this compound in the test? Cc1cc(O)c(C23CC4CC(CC(C4)C2)C3)cc1-c1ccc(CC(=O)O)cc1Cl
inactive

###

- Measured Target: Retinoic acid receptor beta (Homo sapiens) (UniProt P10826)
- Sequence (P10826 whole entry, the tested form may be a part): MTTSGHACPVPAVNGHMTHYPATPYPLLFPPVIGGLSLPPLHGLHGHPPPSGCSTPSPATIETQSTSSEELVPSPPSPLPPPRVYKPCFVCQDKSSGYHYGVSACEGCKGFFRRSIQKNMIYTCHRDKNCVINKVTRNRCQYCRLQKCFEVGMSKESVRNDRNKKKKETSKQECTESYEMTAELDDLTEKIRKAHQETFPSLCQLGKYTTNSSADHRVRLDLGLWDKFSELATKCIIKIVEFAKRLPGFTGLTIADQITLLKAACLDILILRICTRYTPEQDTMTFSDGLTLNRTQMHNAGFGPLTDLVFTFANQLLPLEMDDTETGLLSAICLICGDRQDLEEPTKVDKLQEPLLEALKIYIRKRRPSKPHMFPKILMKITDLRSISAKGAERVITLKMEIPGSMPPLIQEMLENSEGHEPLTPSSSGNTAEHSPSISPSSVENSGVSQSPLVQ
- Measurement Description: Inhibition of transactivation activity of Gal4-LBD fused human RARbeta (169 to 448) transfected in atRA-stimulated african green monkey CV1 cells at 4 uM after 6 hrs by Dual-light chemiluminescent assay
- Type: cell-based
- Condition Description: CV-1
Active and inactive are the calls of the source. The rule behind the calls is not given here.
Reply using exactly one outcome from true for active, false for inactive

# Structure Smiles, Label Value
data = [
    ("COCCOCOc1cc(C)c(-c2ccc3cc(C(=O)O)ccc3c2Cl)cc1C12CC3CC(CC(C3)C1)C2", "false"),
    ("COCCOCOc1cc(C)c(-c2ccc(/C=C/C(=O)O)cc2Cl)cc1C12CC3CC(CC(C3)C1)C2", "false"),
    ("Cc1cc(O)c(C23CC4CC(CC(C4)C2)C3)cc1-c1ccc(/C=C/C(=O)O)cc1Cl", "false"),
]

Now examine the next entry.
What is the recorded call for this molecule in the test? COCCOCOc1ccc(C(=O)/C=C/c2ccc(C(=O)O)cc2)cc1C12CC3CC(CC(C3)C1)C2
true
